The measured values listed here are drawn from patent US11292807B2.

Test system: PC3
procedureText: CIMA assay, cell viability, PC3
conditionsUsed: PC3; 1 ug/mL
Each record here notes measured Fold change in viability AVG.
Format: numeric value only, no unit, no commentary.

As a guide, the following entries are already answered.
CC/C=C\C/C=C\C/C=C\C/C=C\C/C=C\CCCC(=O)OCC(COC1OC(CO)C(O)C(O)C1O)OC(=O)CCC/C=C\C/C=C\C/C=C\C/C=C\C/C=C\CC (stereo not drawn)	1.11
CCCCCCCCCCCCCCCC(=O)OCC(COC1OC(CO)C(O)C(O)C1O)OC(=O)CCCCCCCCCCCCC (stereo not drawn)	1.04

Here's the next entry for you.
I am curious: what Fold change in viability AVG value has been reported for `CCCCC/C=C\C/C=C\CCCCCCCC(=O)O` ?
0.94

----------
Test system: SKOV3 (ovarian adenocarcinoma)
procedureText: CIMA assay, cell viability, SKOV3
conditionsUsed: Homo sapiens, SK-OV-3, read-out: Average cell viability, SKOV; 100 ug/mL
measurementKind: viability at 100 µg/mL
Write the numeric value and follow it with the unit.

# count of solved cases: 6
CCCCCCCCCCCCCCCC(=O)OCC(O)CO (centres unmarked)	22%
CCCCC/C=C\C/C=C\CCCCCCCC(=O)O	26%
CC/C=C\C/C=C\C/C=C\CCCCCCCC(=O)O	83%
CC/C=C\C/C=C\C/C=C\C/C=C\C/C=C\CCCC(=O)OCC(COC1OC(CO)C(O)C(O)C1O)OC(=O)CCC/C=C\C/C=C\C/C=C\C/C=C\C/C=C\CC (centres unmarked)	46%
CCCCCC(O)/C=C/C=C/CCCCCCCC(=O)O (centres unmarked) [77-31-34-6 A, 13-hydroxyoctadeca-9E,11E-dienoic acid]	53%
CCCCCCCCCCCCCCCC(=O)OCC(COC1OC(CO)C(O)C(O)C1O)OC(=O)CCCCCCCCCCCCC (centres unmarked)	68%

// returns reported viability at 100 µg/mL for input CC/C=C\C/C=C\C/C=C\C/C=C\CCC(=O)OC(COC(=O)CCCCCCC/C=C\C/C=C\C/C=C\CC)COC1OC(CO)C(O)C(O)C1O (centres unmarked)
67%

# get_value(readout='viability at 100 µg/mL', item= CC/C=C\C/C=C\C/C=C\C/C=C\C/C=C\CCCC(=O)OCC(O)COC1OC(CO)C(O)C(O)C1O (centres unmarked) )
34%

----------
Tested on: A549 (lung carcinoma)
procedureText: CIMA assay (colorimetric indicator of metabolic activity), cell viability, A549
conditionsUsed: Homo sapiens, A549, read-out: Average cell viability, A549; 10 ug/mL
measurementKind: viability at 10 µg/mL (%)
Kindly provide the numeric value in % only, without the unit symbol.

These recorded examples may help you get a feel for the data.
CC/C=C\C/C=C\C/C=C\C/C=C\C/C=C\CCCC(=O)OCC(COC1OC(CO)C(O)C(O)C1O)OC(=O)CCC/C=C\C/C=C\C/C=C\C/C=C\C/C=C\CC (stereo not drawn)	56
CCCCCCCCCCCCCCCC(=O)OCC(COC1OC(CO)C(O)C(O)C1O)OC(=O)CCCCCCCCCCCCC (stereo not drawn)	99
CC/C=C\C/C=C\C/C=C\C/C=C\CCC(=O)OC(COC(=O)CCCCCCC/C=C\C/C=C\C/C=C\CC)COC1OC(CO)C(O)C(O)C1O (stereo not drawn)	101
CC/C=C\C/C=C\C/C=C\CCCCCCCC(=O)O	100

Given `CCCCC/C=C\C/C=C\CCCCCCCC(=O)O` , state its recorded viability at 10 µg/mL.
96

Quick check: viability at 10 µg/mL of CC/C=C\C/C=C\C/C=C\C/C=C\C/C=C\CCCC(=O)OCC(O)COC1OC(CO)C(O)C(O)C1O (stereo not drawn) ?
55

----------
Test system: THP-1 (acute monocytic leukemia)
procedureText: CIMA assay, cell viability, THP-1
conditionsUsed: THP-1, 1 ug/mL; listed as 174-13-14-3
measurementKind: Average cell viability (%)
Report the figure in % without appending any unit label.

State its Average cell viability on THP-1 (acute monocytic leukemia): CC/C=C\C/C=C\C/C=C\C/C=C\C/C=C\CCCC(=O)OCC(COC1OC(CO)C(O)C(O)C1O)OC(=O)CCCCCCCCCCCCCCC (stereo not shown) [Compound 2, MGDG C20:5/C16:0]
91

----------
Tested on: U373 (glioblastoma-astrocytoma)
procedureText: CIMA assay, cell viability, U373
conditionsUsed: Homo sapiens, U373 MG, read-out: Average cell viability, U373; 100 ug/mL
measurementKind: viability at 100 µg/mL (%)
Give just the numeric value; % need not be written.

CCCCCCCCCCCCCCCC(=O)OCC(COC1OC(CO)C(O)C(O)C1O)OC(=O)CCCCCCCCCCCCC (stereo not drawn)	9
CCCCCCCCCCCCCCCC(=O)OCC(O)CO (stereo not drawn)	7
CC/C=C\C/C=C\C/C=C\C/C=C\C/C=C\CCCC(=O)OCC(COC1OC(CO)C(O)C(O)C1O)OC(=O)CCCCCCCCCCCCCCC (stereo not drawn)	8
CC/C=C\C/C=C\C/C=C\CCCCCCCC(=O)O	10

// query viability at 100 µg/mL value for entry CC/C=C\C/C=C\C/C=C\C/C=C\CCC(=O)OC(COC(=O)CCCCCCC/C=C\C/C=C\C/C=C\CC)COC1OC(CO)C(O)C(O)C1O (stereo not drawn)
9

// query viability at 100 µg/mL value for entry CC/C=C\C/C=C\C/C=C\C/C=C\C/C=C\CCCC(=O)OCC(COC1OC(CO)C(O)C(O)C1O)OC(=O)CCC/C=C\C/C=C\C/C=C\C/C=C\C/C=C\CC (stereo not drawn)
5

Need viability at 100 µg/mL of `CCCCC/C=C\C/C=C\CCCCCCCC(=O)O` , thanks.
5

Consider the compound CC/C=C\C/C=C\C/C=C\C/C=C\C/C=C\CCCC(=O)OCC(O)COC1OC(CO)C(O)C(O)C1O (stereo not drawn) and give its measured viability at 100 µg/mL.
6

Please look up its viability at 100 µg/mL: CCCCCC(O)/C=C/C=C/CCCCCCCC(=O)O (stereo not drawn) [77-31-34-6 A, 13-hydroxyoctadeca-9E,11E-dienoic acid]
4

----------
Tested on: MDA-MB
conditionsUsed: human, 72 h, 1 ug/mL
measurementKind: Average cell viability (%)
Reply numerically in %, unit not repeated.

Please give the measured Average cell viability for this compound: CC/C=C\C/C=C\C/C=C\C/C=C\C/C=C\CCCC(=O)OCC(COC1OC(CO)C(O)C(O)C1O)OC(=O)CCCCCCCCCCCCCCC (stereo not shown) [Compound 2, MGDG C20:5/C16:0]
102

----------
Measured Fold change in viability AVG, listed per entry.
System: PC3
procedureText: CIMA assay, cell viability, PC3
conditionsUsed: PC3; 1 ug/mL
Could you keep your reply to the number by itself?

CC/C=C\C/C=C\C/C=C\C/C=C\CCC(=O)OC(COC(=O)CCCCCCC/C=C\C/C=C\C/C=C\CC)COC1OC(CO)C(O)C(O)C1O (stereo not drawn)	1.07
CC/C=C\C/C=C\C/C=C\C/C=C\C/C=C\CCCC(=O)OCC(O)COC1OC(CO)C(O)C(O)C1O (stereo not drawn)	1.08

Now let's try a different one.
Entry `CC/C=C\C/C=C\C/C=C\CCCCCCCC(=O)O` has what Fold change in viability AVG?
1.09

----------
Tested on: A549 (lung carcinoma)
procedureText: CIMA assay (colorimetric indicator of metabolic activity), cell viability, A549
conditionsUsed: A549; positive control 250 ug/ml; unit assumed
measurementKind: Average cell viability (%)
Answer with a number only, understood to be in %.

Please report the recorded Average cell viability for CCCCCCCCCCCCOS(=O)(=O)[O-].[Na+] [SDS, reference compound] .
11

----------
System: U373 (glioblastoma-astrocytoma)
procedureText: CIMA assay, cell viability, U373
conditionsUsed: Homo sapiens, U373 MG, read-out: Average cell viability, U373; 50 ug/mL
hey, just use class 1 if measured viability at 50 µg/mL is less than 10%, otherwise class 0

CC/C=C\C/C=C\C/C=C\C/C=C\C/C=C\CCCC(=O)OCC(O)COC1OC(CO)C(O)C(O)C1O (stereo not shown)	class 1
CC/C=C\C/C=C\C/C=C\C/C=C\C/C=C\CCCC(=O)OCC(COC1OC(CO)C(O)C(O)C1O)OC(=O)CCC/C=C\C/C=C\C/C=C\C/C=C\C/C=C\CC (stereo not shown)	class 1
CCCCCCCCCCCCCCCC(=O)OCC(COC1OC(CO)C(O)C(O)C1O)OC(=O)CCCCCCCCCCCCC (stereo not shown)	class 0
CCCCCCCCCCCCCCCC(=O)OCC(O)CO (stereo not shown)	class 0
CC/C=C\C/C=C\C/C=C\CCCCCCCC(=O)O	class 0

Item `CCCCC/C=C\C/C=C\CCCCCCCC(=O)O` : viability at 50 µg/mL beneath 10%, strictly?
class 1

Is viability at 50 µg/mL of CC/C=C\C/C=C\C/C=C\C/C=C\CCC(=O)OC(COC(=O)CCCCCCC/C=C\C/C=C\C/C=C\CC)COC1OC(CO)C(O)C(O)C1O (stereo not shown) strictly below 10%?
class 0
